For each of the binders below, state its t½.
test.system: T1, monkey NPR1 extracellular domain expressed with a C-terminal myc-myc-hexahistidine (mfNPR1-MMH) (monkey, UniProt P16066 33-473 (human entry))
T1 construct: also called monomeric monkey NPR1
T1 chain: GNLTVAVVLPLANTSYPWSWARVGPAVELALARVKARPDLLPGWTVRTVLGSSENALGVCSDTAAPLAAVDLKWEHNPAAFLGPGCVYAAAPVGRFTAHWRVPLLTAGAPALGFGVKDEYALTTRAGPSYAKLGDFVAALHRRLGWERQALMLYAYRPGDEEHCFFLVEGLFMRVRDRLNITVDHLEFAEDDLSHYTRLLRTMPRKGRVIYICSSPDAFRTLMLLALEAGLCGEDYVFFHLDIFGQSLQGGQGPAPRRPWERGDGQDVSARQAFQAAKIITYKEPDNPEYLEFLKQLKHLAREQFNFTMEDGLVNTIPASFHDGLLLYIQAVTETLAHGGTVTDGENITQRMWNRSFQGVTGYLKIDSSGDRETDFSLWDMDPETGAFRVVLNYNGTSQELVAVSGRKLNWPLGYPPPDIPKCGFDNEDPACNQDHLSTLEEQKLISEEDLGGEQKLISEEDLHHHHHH
test.description: SPR, mAb captured, 25 C
State the result as a value with its unit after it.

Example entries begin here.
>>> observed("mAb22035 (antibody, V domains shown) VH: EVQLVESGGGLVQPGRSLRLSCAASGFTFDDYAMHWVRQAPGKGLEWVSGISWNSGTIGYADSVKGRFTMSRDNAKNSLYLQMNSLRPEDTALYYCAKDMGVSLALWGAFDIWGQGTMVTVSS VL: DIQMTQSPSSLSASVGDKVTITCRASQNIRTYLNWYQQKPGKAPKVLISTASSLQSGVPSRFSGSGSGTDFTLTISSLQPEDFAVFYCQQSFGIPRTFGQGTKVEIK")
"80.8 min"
>>> observed("mAb25479 (antibody, V domains shown) VH: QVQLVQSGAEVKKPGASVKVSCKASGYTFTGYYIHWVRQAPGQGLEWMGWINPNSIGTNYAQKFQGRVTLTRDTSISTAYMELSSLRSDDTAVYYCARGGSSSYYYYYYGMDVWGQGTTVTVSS VL: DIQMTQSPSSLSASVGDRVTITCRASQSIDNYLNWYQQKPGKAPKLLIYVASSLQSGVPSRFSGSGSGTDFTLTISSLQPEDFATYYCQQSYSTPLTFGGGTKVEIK")
"1.7 min"

[in] Look at this binder and give its reported t½. mAb22033 (antibody, V domains shown) VH: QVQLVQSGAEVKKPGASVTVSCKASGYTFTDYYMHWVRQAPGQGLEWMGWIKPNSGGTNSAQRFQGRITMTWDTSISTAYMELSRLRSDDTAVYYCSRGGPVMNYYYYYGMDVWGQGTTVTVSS VL: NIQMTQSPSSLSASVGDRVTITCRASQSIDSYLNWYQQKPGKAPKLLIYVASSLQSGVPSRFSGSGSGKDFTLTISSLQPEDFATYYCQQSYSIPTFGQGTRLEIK
[out] 39.6 min

Values from patent US20240309103A1
